System: wp2[pKM101]+wp2 uvrA mixed 1:2
Assay: Ames Test, E. coli
Details: 100 μM (row printed 200; conc. column shifted)
QUANTITY MEASURED: Fold increase (over baseline)

[[record]]
compound = "CC(C)(C)Sc1ccc(NC(=O)Cn2ccnc2)cc1 [Compound 3]"
observed_result = 1.75

[[record]]
compound = "Cc1nc2c(c(N3CCCN(Cc4ccccc4)CC3)n1)CCCC2 [Compound 31]"
observed_result = 0.38

[[record]]
compound = "O=C(Cn1ccnc1-c1ccccn1)Nc1ccc(-c2ccccc2)cc1 [Compound 4]"
observed_result = 0.38

[[record]]
compound = "CC(C)c1nccn1CC(=O)Nc1ccc(-c2ccccc2)cc1 [Compound 2]"
observed_result = 0.38

[[record]]
compound = "O=C(Cn1cnc2c1CCCC2)Nc1ccc(-c2ccccc2)cc1 [Compound 1]"
observed_result = 0

